# assay system: human BACE1 (Homo sapiens, UniProt P56817)
# Sequence (P56817 46-501): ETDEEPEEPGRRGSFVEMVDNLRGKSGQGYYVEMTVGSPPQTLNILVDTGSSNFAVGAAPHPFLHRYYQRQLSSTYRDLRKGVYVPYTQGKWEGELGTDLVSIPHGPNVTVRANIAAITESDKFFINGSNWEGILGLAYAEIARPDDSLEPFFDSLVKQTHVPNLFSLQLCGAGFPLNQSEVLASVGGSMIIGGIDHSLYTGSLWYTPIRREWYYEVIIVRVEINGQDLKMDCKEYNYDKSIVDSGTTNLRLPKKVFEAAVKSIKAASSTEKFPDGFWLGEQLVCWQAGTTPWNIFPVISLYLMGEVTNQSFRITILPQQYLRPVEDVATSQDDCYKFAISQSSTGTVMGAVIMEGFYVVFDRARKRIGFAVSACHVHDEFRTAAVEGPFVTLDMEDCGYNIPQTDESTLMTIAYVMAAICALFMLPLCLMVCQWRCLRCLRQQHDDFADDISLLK
# protocol details: Fluorescent kinetic assay, human BACE1 (FRET peptide substrate WABC-6)
# Type: biochemical
# stated conditions: fluorescent kinetic assay, 25 μM substrate WABC-6, pH 4.5, room temperature; read-out: IC50 (μM) BACE 1
reported property: IC50

Q. Tell me IC50 of CCC(=O)c1ccc(-c2ccc(-c3ccccc3)n2CC(=O)NC(=N)N)cc1 [Example 447] when tested on human BACE1 (Homo sapiens, UniProt P56817).
A. 1.1 to 5 µM

Q. Tell me IC50 of CC(C)CNC(N)=NC(=O)Cn1c(-c2ccccc2)ccc1C12CC3CC(CC(C3)C1)C2 [Example 407] when tested on human BACE1 (Homo sapiens, UniProt P56817).
A. 1.1 to 5 µM

###

# assay system: human BACE1 (Homo sapiens, UniProt P56817)
# protocol details: Fluorescent kinetic assay, human BACE1 (FRET peptide substrate WABC-6)
# Assay type: biochemical
pIC50: −log10 of the molar value.
reported property: pIC50

In [3]: df
Out[3]:
                                 mol_smiles  measured_value
0  N=C(NCc1cccc(N)c1)NC(=O)Cn1c(-c2ccccc2)ccc1C12CC3CC(CC(C3)C1)C2    6.00 to 6.96

Turning to the following molecule.
Q. Quote pIC50 reported for `N/C(=N/C(=O)Cn1c(-c2ccccc2)ccc1C12CC3CC(CC(C3)C1)C2)NCCCO` please.
A. 6.00 to 6.96

###

The entries below are paired with their reported IC50.
# assay system: human BACE1 (Homo sapiens, UniProt P56817)
# protocol details: Fluorescent kinetic assay, human BACE1 (FRET peptide substrate WABC-6)
# Format: biochemical
# stated conditions: fluorescent kinetic assay, 25 μM substrate WABC-6, pH 4.5, room temperature; read-out: IC50 (μM) BACE 1

Q. Tell me IC50 of CC(=O)OCCNC(N)=NC(=O)Cn1c(-c2ccccc2)ccc1C12CC3CC(CC(C3)C1)C2 [Example 394] when tested on human BACE1 (Homo sapiens, UniProt P56817).
A. 0.11 to 1 µM

Q. Tell me IC50 of N/C(=N/C(=O)Cn1c(-c2ccc(OCCC3OCCO3)cc2)ccc1-c1ccccc1Cl)NCCCO [Example 316] when tested on human BACE1 (Homo sapiens, UniProt P56817).
A. 0.11 to 1 µM

Q. Tell me IC50 of C=CCCCOc1ccc(-c2ccc(-c3ccccc3Cl)n2CC(=O)NC(=N)NCCCO)cc1 [Example 313] when tested on human BACE1 (Homo sapiens, UniProt P56817).
A. 0.11 to 1 µM

###

reported property: melting point

Examples with their reported melting point follow.
In [3]: df
Out[3]:
                                   compound  measured_value
0  NC(N)=NC(=O)Cn1c(C(=O)c2ccccc2)ccc1-c1ccccc1 [Example 455]   201 to 203 °C
1  N=C(N)NC(=O)Cn1c(C(=O)c2ccco2)ccc1-c1ccccc1 [Example 456]   175 to 177 °C
2  N=C(N)NC(=O)Cn1c(Cc2ccccc2)ccc1-c1ccccc1 [Example 458]   155 to 158 °C
3  N=C(N)NC(=O)Cn1c(Cc2ccco2)ccc1-c1ccccc1 [Example 459]     80 to 82 °C

Turning to the following compound.
Q. Quote melting point reported for N=C(N)NC(=O)Cn1c(Cc2cccs2)ccc1-c1ccccc1 [Example 460] please.
A. 99 to 120 °C

###

The entries below are paired with their reported IC50.
# assay system: human BACE1 (Homo sapiens, UniProt P56817)
# protocol details: Fluorescent kinetic assay, human BACE1 (FRET peptide substrate WABC-6)
# Type: biochemical
# stated conditions: fluorescent kinetic assay, 25 μM substrate WABC-6, pH 4.5, room temperature; read-out: IC50 (μM) BACE 1

Q. Quote IC50 reported for NC(N)=NC(=O)Cn1c(-c2ccccc2)ccc1-c1ccc(C(=O)N2CCSC2)cc1 [Example 169] please.
A. 1.1 to 5 µM

Q. Quote IC50 reported for C=CCNC(=O)c1ccc(-c2ccc(-c3ccccc3)n2CC(=O)N=C(N)NCc2cccc(N)c2)cc1 [Example 426] please.
A. 0.11 to 1 µM

###

# assay system: human BACE1 (Homo sapiens, UniProt P56817)
# protocol details: Fluorescent kinetic assay, human BACE1 (FRET peptide substrate WABC-6);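 note: fluorescence monitored at excitation 320 nm and emission 420 nm over 30 min, with the substrate cleavage rate taken as the linear slope of the signal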
# Assay type: biochemical
# stated conditions: fluorescent kinetic assay, 25 μM substrate WABC-6, pH 4.5, room temperature; read-out: IC50 (μM) BACE 1
reported property: IC50

Examples with their reported IC50 follow.
>>> print(df.to_string())
                                   compound  measured_value
0  NC(=NC(=O)Cn1c(-c2ccccc2)ccc1C12CC3CC(CC(C3)C1)C2)NCc1ccco1 [Example 401]     1.1 to 5 µM
1  C=CCNC(=O)c1ccc(-c2ccc(-c3ccccc3)n2CC(=O)N=C(N)NCc2nnc(C)o2)cc1 [Example 423]    0.11 to 1 µM

Turning to the following compound.
Q. Quote IC50 reported for CCCCOc1ccc(-c2ccc(-c3ccccc3)n2CC(=O)N=C(N)NCc2ccc(F)c(F)c2F)cc1 [Example 334] please.
A. 0.11 to 1 µM

###

# assay system: human BACE1 (Homo sapiens)
# protocol details: Fluorescent kinetic assay, human BACE1 (FRET peptide substrate WABC-6)
# Format: biochemical
# stated conditions: fluorescent kinetic assay, 25 μM substrate WABC-6, pH 4.5, room temperature; read-out: IC50 (μM) BACE 1
The entries below are paired with their reported IC50.

                                 mol_smiles  reported_property  measured_value
0  N#CCc1ccc(-c2ccc(-c3ccccc3)n2CC(=O)NC(=N)N)cc1               IC50     1.1 to 5 µM
1  NC(=NC(=O)Cn1c(-c2ccccc2)ccc1-c1ccc(Oc2ccccc2)cc1)NCCCO               IC50    0.11 to 1 µM
2  CCCCc1ccc(-c2ccc(-c3ccccc3)n2CC(=O)N=C(N)NCc2ccc(F)c(F)c2F)cc1               IC50    0.11 to 1 µM
3  COCCNC(N)=NC(=O)Cn1c(-c2ccccc2)ccc1C12CC3CC(CC(C3)C1)C2               IC50    0.11 to 1 µM
4  NC(=NC(=O)Cn1c(-c2ccccc2)ccc1C12CC3CC(CC(C3)C1)C2)NCC(F)(F)F               IC50    0.11 to 1 µM
5  CCS(=O)(=O)N/C(N)=N\C(=O)Cn1c(-c2ccccc2)ccc1C12CC3CC(CC(C3)C1)C2               IC50    0.11 to 1 µM
6  COc1ccc(OC)c(-c2ccc(-c3ccc(Oc4ccc(C(C)=O)cc4)cc3)n2CC(=O)N=C(N)N)c1               IC50    0.11 to 1 µM
7  NC(=NC(=O)Cn1c(-c2ccccc2)ccc1-c1ccc(C2CCCCC2)cc1)NCc1ccc(F)c(F)c1F               IC50    0.11 to 1 µM

Q. Quote IC50 reported for `N=C(NCCCn1ccnc1)NC(=O)Cn1c(-c2ccccc2)ccc1C12CC3CC(CC(C3)C1)C2` please.
A. 1.1 to 5 µM

Q. Quote IC50 reported for `CCOC(=O)CCCNC(N)=NC(=O)Cn1c(-c2ccccc2)ccc1C12CC3CC(CC(C3)C1)C2` please.
A. 1.1 to 5 µM

Q. Quote IC50 reported for `CCCCCc1ccc(-c2ccc(-c3ccccc3)n2CC(=O)N=C(N)NCCCO)cc1` please.
A. 0.11 to 1 µM

Q. Quote IC50 reported for `NC(N)=NC(=O)Cn1c(-c2ccccc2)ccc1-c1ccc(NC(=O)COc2ccccc2)cc1` please.
A. 1.1 to 5 µM

Q. Quote IC50 reported for `C=CCNC(=O)c1ccc(-c2ccc(-c3ccccc3)n2CC(=O)N=C(N)NCc2nc(C)cs2)cc1` please.
A. 0.11 to 1 µM

Q. Quote IC50 reported for `N/C(=N/C(=O)Cn1c(-c2ccccc2)ccc1C12CC3CC(CC(C3)C1)C2)NCCO` please.
A. 0.11 to 1 µM

Q. Quote IC50 reported for `NC(=NC(=O)Cn1c(-c2ccccc2)ccc1-c1ccc(C(=O)NCCO)cc1)NCCCO` please.
A. 0.11 to 1 µM

Q. Quote IC50 reported for `N#CCc1cccc(-c2ccc(-c3ccccc3)n2CC(=O)NC(=N)N)c1` please.
A. 1.1 to 5 µM

###

# assay system: human BACE1 (Homo sapiens)
# protocol details: Fluorescent kinetic assay, human BACE1 (FRET peptide substrate WABC-6)
# Type: biochemical
# stated conditions: fluorescent kinetic assay, 25 μM substrate WABC-6, pH 4.5, room temperature; read-out: IC50 (μM) BACE 1
reported property: IC50

Examples with their reported IC50 follow.
>>> print(df.to_string())
                                   molecule  reported_property  measured_value
0  N=C(NCC(O)CO)NC(=O)Cn1c(-c2ccccc2)ccc1C12CC3CC(CC(C3)C1)C2 (stereo not drawn)               IC50    0.11 to 1 µM
1  CCCc1ccc(-c2ccc(-c3ccccc3)n2CC(=O)N=C(N)NCCCO)cc1               IC50    0.11 to 1 µM
2  N#CCCCCOc1ccc(-c2ccc(-c3ccccc3Cl)n2CC(=O)N=C(N)NCCCO)cc1               IC50  0.01 to 0.1 µM
3  N#Cc1ccc(-c2ccc(-c3ccccc3)n2CC(=O)N=C(N)NCc2ccc(F)c(F)c2F)cc1               IC50     1.1 to 5 µM

Q. Quote IC50 reported for `CCCCOc1ccc(-c2ccc(-c3ccccc3)n2CC(=O)N=C(N)NCCCO)cc1` please.
A. 0.11 to 1 µM

Q. Quote IC50 reported for `Cc1cccc(C(=O)Nc2ccc(-c3ccc(-c4ccccc4)n3CC(=O)N=C(N)N)cc2)c1` please.
A. 1.1 to 5 µM

Q. Quote IC50 reported for `N=C(N)NC(=O)Cn1c(-c2ccccc2)ccc1-c1ccccc1C(F)(F)F` please.
A. 1.1 to 5 µM

Q. Quote IC50 reported for `CC(=O)c1ccc(Oc2ccc(-c3ccc(-c4ccccc4)n3CC(=O)N=C(N)NCCCO)cc2)cc1` please.
A. 0.11 to 1 µM

Q. Quote IC50 reported for `CCNC(=O)c1ccc(-c2ccc(-c3ccccc3)n2CC(=O)NC(N)=NCCCO)cc1` please.
A. 0.11 to 1 µM

Q. Quote IC50 reported for `NC(N)=NC(=O)Cn1c(-c2ccccc2)ccc1-c1ccc(NS(=O)(=O)c2ccc(Cl)s2)cc1` please.
A. 1.1 to 5 µM
